Numbers sourced from PubChem BioAssay AID1159580.

assay: chemical genetic growth profiling, strain panel (AID 1159580);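 note: tested at 20 µM; growth read once vehicle control cultures reached saturation at 30 °C; 1 = growth at the plate median or of vehicle wells; lower values mean less growth of the strain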; settings: S. cerevisiae deletion strains, growth OD, locus YML094W, strain GIM5
Out of some 5,500 compounds screened, about 2,000 (36%) were called active. Another 18% or so got no clear call; they are omitted. Cut-off read from the data, not from the text of the source: active = normalized growth mostly below about 0.91 (no sharp cut-off); inconclusive = no clear call, values can overlap the other calls; inactive = mostly above about 0.92. The list shows a part of the results.
Pick one and only one: active, inactive

Input: Write down the call the test reported for this compound. Item: COC(=O)c1c(-c2c(Cl)cccc2Cl)noc1NC(=O)NN1CCCCC1
Output: inactive

Input: Next entry: Cc1onc(-c2c(Cl)cccc2Cl)c1C(=O)OCC(F)(F)F
Output: inactive

Input: Now this one: Cc1ccc(CC(=O)O)cc1
Output: inactive

Input: Another compound to check: Cc1ccc(NS(C)(=O)=O)cc1N=Cc1ccc(Cl)c(Cl)c1
Output: inactive

Input: // next record OC(CN1CCN(c2nc3ccc(Cl)cc3s2)CC1)CN1CCCN(c2ncc(C(F)(F)F)cc2Cl)CC1 (centres undefined)
Output: active

Input: Cc1nc(-c2ccc(S(=O)(=O)N3CCN(c4ncnc5scc(-c6ccccc6)c45)CC3)s2)cs1 ?
Output: inactive

Input: Same lookup for CC(=O)c1cnn(-c2ccccc2)c1C , please.
Output: inactive

Input: For N#CC(C#N)=Cc1ccc(-c2cc(C(F)(F)F)ccc2Cl)o1 then?
Output: inactive

Input: // next record N#Cc1c(F)cccc1Oc1ccc(F)cc1
Output: inactive

Input: // query: N#C/C(=C\c1cccn1-c1ccc(OC(F)(F)F)cc1)S(=O)(=O)c1ccccc1
Output: inactive

Input: Consider next the compound CCN(CC)CCNC(=O)c1c(-c2c(Cl)cccc2Cl)noc1C in the same way.
Output: inactive

Input: Entry Cc1ccc(NC(=O)c2c(F)cccc2Cl)c(C(=O)Nc2ccc(F)cc2)c1 please
Output: inactive

Input: Try the compound COc1ccc(C(C)=O)cc1CSC(=NS(=O)(=O)c1ccccc1)Nc1cccc(F)c1
Output: inactive

Input: Record: Cc1onc(-c2c(F)cccc2Cl)c1C(=O)Oc1ccccc1
Output: inactive

----------
test: chemical genetic growth profiling, strain panel (AID 1159580);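 note: tested at 20 µM; growth read once vehicle control cultures reached saturation at 30 °C; 1 = growth at the plate median or of vehicle wells; lower values mean less growth of the strain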; details: S. cerevisiae deletion strains, growth OD, locus YHR142W, strain chs7, hits give low values
Screen size: about 5,500 compounds; about 2,000 (36%) were called active. About 18% were inconclusive and are not listed. The list shows a part of the results.
For each entry below, report its normalized growth value.
Enter a number only.

Input: Would you mind telling me what normalized growth value was observed for CCCC(=O)O[C@]1(C(=O)CO)CCC2[C@@H]3CCC4=CC(=O)CC[C@]4(C)C3[C@@H](O)C[C@@]21C (stereo not given in full) ?
Output: 1.02

Input: Check CO/N=C(\C(=O)N[C@@H]1C(=O)N2C(C(=O)O)=C(COC(C)=O)CS[C@H]12)c1csc(N)n1 too.
Output: 0.993

Input: CC(C)(Oc1ccc(C2CC2(Cl)Cl)cc1)C(=O)O (stereo not given) ?
Output: 1

Input: Can you handle CCOC(=O)c1ccc(O)cc1 next?
Output: 1.01

Input: Thanks! And CO/N=C(\C(=O)N[C@@H]1C(=O)N2C(C(=O)O)=C(CSc3nc(=O)c(O)nn3C)CS[C@H]12)c1csc(N)n1 ?
Output: 0.982

----------
assay: chemical genetic growth profiling, strain panel (AID 1159580);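 note: tested at 20 µM; growth read once vehicle control cultures reached saturation at 30 °C; 1 = growth at the plate median or of vehicle wells; lower values mean less growth of the strain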; settings: S. cerevisiae deletion strains, growth OD, locus YOR083W, strain WHI5, hits give low values
Among all 5,500 compounds or so, about 2,000 (36%) were called active. Inconclusive results (about 18%) are left out. This is one part of the list.
quantity.name: normalized growth
Provide a numeric answer; units are not to be included.

Input: Reported normalized growth for O=c1[nH]oc2c1CCNC2 : what is it?
Output: 0.976

Input: And the next one, C=C1CCC2C(CC2(C)C)C(=C)CC/C1=N\O (stereo not given) ?
Output: 0.989

Input: Same question, NC(N)=NS(=O)(=O)c1ccc(N)cc1 this time
Output: 0.979

Input: Then COC(=O)C(C)c1ccc(C(=O)c2cccs2)cc1 (stereo not given) ?
Output: 1

Input: Input O=C1OC(c2ccc(O)cc2)(c2ccc(O)cc2)c2ccccc21
Output: 0.983

Input: Next compound: O=C1C=C2C=C[C@@H]3C[C@@]2(O1)[C@H]1CCCCN31
Output: 0.982

Input: CCOC(=O)Nc1nc2ccccc2[nH]1 , same question.
Output: 0.974

Input: Now try CO/N=C(\C(=O)N[C@@H]1C(=O)N2C(C(=O)O)=C(COC(C)=O)CS[C@H]12)c1csc(N)n1 .
Output: 1.02

Input: Field entry: CO/N=C(\C(=O)N[C@@H]1C(=O)N2C(C(=O)O)=C(CSc3nc(=O)c(O)nn3C)CS[C@H]12)c1csc(N)n1
Output: 0.981

Input: // query: COC(=O)C1=CCCN(C)C1
Output: 1.01

Input: Next record, please: COC(=O)C[C@H]1C(C)(C)C(=O)[C@@H]2CC3=C(CC[C@]4(C)C3=CC(=O)O[C@H]4c3ccoc3)[C@@]1(C)C2=O
Output: 1.01

Input: Next compound up: O=C1OC2(c3ccc(O)cc3Oc3cc(O)ccc32)c2ccccc21
Output: 0.98

Input: Okay, and C=C1CCC(OC(C)=O)/C(C)=C/C[C@@H]2[C@@H]1CC2(C)C (stereo not given in full) ?
Output: 1.01

Input: Entry to check: C=C1CCC(C2CC(=O)OC2=O)C(=O)CCC2C1CC2(C)C (stereo not given)
Output: 0.997

Input: And for O=C1NC(=O)C(=O)C(=O)N1 ?
Output: 0.996
